# Assayed target: T1, human Fibroblast Activation Protein (FAP), soluble antigen (human, UniProt Q12884 26-760, biotinylated when immobilized on streptavidin sensors)
# T1 construct: also called hFAP; biotinylated FAP
# T1 sequence (Q12884 26-760 limits assumed): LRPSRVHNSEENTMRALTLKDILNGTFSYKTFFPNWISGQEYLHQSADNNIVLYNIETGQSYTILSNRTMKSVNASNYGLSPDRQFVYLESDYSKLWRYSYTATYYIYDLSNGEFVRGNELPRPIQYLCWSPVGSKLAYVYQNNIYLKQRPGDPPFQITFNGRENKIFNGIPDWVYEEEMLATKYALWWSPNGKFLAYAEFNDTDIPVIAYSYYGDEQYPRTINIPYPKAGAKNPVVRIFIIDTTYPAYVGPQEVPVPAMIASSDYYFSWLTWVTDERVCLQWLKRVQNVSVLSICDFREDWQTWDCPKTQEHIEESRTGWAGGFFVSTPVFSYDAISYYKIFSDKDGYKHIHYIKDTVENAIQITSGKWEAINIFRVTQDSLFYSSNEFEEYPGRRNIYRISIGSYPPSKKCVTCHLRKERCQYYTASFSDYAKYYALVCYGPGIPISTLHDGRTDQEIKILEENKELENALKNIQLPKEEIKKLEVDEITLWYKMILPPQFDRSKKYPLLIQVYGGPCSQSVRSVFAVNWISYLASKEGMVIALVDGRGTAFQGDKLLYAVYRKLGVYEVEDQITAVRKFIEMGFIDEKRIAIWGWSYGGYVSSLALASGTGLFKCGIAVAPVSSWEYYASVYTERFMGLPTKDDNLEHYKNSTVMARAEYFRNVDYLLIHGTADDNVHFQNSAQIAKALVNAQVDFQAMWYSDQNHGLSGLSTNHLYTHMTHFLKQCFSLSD
# Protocol details: BLI per 6.1.3, human FAP;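 note: biolayer interferometry with immobilized antigen on sensors, antibody association up to 240 s then dissociation up to 420 s, reference-subtracted, global 1:1 fit with unlinked Rmax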
Quantity kind: kon
The answer consists of two parts: a number and, after it, its unit.

Solved entries (count: 5):
872-5 VH Q96L:VL A91G/T92R (antibody, V domains shown, BLI per 6.1.3) VH: EVQLVESGGGLVQPGGSLRLSCAASGFTFRGYIMSWVRQAPGKGLEWVSWISPEGSRTGYADSVKGRFTISRDNSKNTLYLQMNSLRAEDTAVYYCARLLYGTWFDYWGQGTLVTVSS VL: DIQMTQSPSSLSASVGDRVTITCRASQSISSYLNWYQQKPGKAPKLLIYAASSLQSGVPSRFSGSGSGTDFTLTISSLQPEDFATYYCQQGRLLLPTFGQGTKVEIKR ... 812000 M⁻¹ s⁻¹
872-5 VH S52G (antibody, V domains shown, BLI per 6.1.3) VH: EVQLVESGGGLVQPGGSLRLSCAASGFTFRGYIMSWVRQAPGKGLEWVSWIGPEGSRTGYADSVKGRFTISRDNSKNTLYLQMNSLRAEDTAVYYCARLQYGTWFDYWGQGTLVTVSS VL: DIQMTQSPSSLSASVGDRVTITCRASQSISSYLNWYQQKPGKAPKLLIYAASSLQSGVPSRFSGSGSGTDFTLTISSLQPEDFATYYCQQATLLLPTFGQGTKVEIKR ... 642000 M⁻¹ s⁻¹
872-5 VH S52G/Q96L/VL T92R (antibody, V domains shown, BLI per 6.1.3) VH: EVQLVESGGGLVQPGGSLRLSCAASGFTFRGYIMSWVRQAPGKGLEWVSWIGPEGSRTGYADSVKGRFTISRDNSKNTLYLQMNSLRAEDTAVYYCARLLYGTWFDYWGQGTLVTVSS VL: DIQMTQSPSSLSASVGDRVTITCRASQSISSYLNWYQQKPGKAPKLLIYAASSLQSGVPSRFSGSGSGTDFTLTISSLQPEDFATYYCQQARLLLPTFGQGTKVEIKR ... 878000 M⁻¹ s⁻¹
872-5 VH S52G:VL A91G/T92R (antibody, V domains shown, BLI per 6.1.3) VH: EVQLVESGGGLVQPGGSLRLSCAASGFTFRGYIMSWVRQAPGKGLEWVSWIGPEGSRTGYADSVKGRFTISRDNSKNTLYLQMNSLRAEDTAVYYCARLQYGTWFDYWGQGTLVTVSS VL: DIQMTQSPSSLSASVGDRVTITCRASQSISSYLNWYQQKPGKAPKLLIYAASSLQSGVPSRFSGSGSGTDFTLTISSLQPEDFATYYCQQGRLLLPTFGQGTKVEIK ... 673000 M⁻¹ s⁻¹
872-5 VL T92R (antibody, V domains shown, BLI per 6.1.3) VH: EVQLVESGGGLVQPGGSLRLSCAASGFTFRGYIMSWVRQAPGKGLEWVSWISPEGSRTGYADSVKGRFTISRDNSKNTLYLQMNSLRAEDTAVYYCARLQYGTWFDYWGQGTLVTVSS VL: DIQMTQSPSSLSASVGDRVTITCRASQSISSYLNWYQQKPGKAPKLLIYAASSLQSGVPSRFSGSGSGTDFTLTISSLQPEDFATYYCQQARLLLPTFGQGTKVEIKR ... 614000 M⁻¹ s⁻¹

Incoming: Which kon is reported for this binder? 872-5 VH S52G/Q96L (antibody, V domains shown, BLI per 6.1.3) VH: EVQLVESGGGLVQPGGSLRLSCAASGFTFRGYIMSWVRQAPGKGLEWVSWIGPEGSRTGYADSVKGRFTISRDNSKNTLYLQMNSLRAEDTAVYYCARLLYGTWFDYWGQGTLVTVSS VL: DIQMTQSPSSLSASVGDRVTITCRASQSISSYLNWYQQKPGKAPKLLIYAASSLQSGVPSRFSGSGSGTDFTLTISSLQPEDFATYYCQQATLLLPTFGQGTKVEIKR
Outgoing: 645000 M⁻¹ s⁻¹

Incoming: Which kon is reported for this binder? 872-5 VL A91G (antibody, V domains shown, BLI per 6.1.3 (monovalent Fab-Fc)) VH: EVQLVESGGGLVQPGGSLRLSCAASGFTFRGYIMSWVRQAPGKGLEWVSWISPEGSRTGYADSVKGRFTISRDNSKNTLYLQMNSLRAEDTAVYYCARLQYGTWFDYWGQGTLVTVSS VL: DIQMTQSPSSLSASVGDRVTITCRASQSISSYLNWYQQKPGKAPKLLIYAASSLQSGVPSRFSGSGSGTDFTLTISSLQPEDFATYYCQQGTLLLPTFGQGTKVEIKR
Outgoing: 1.3e+06 M⁻¹ s⁻¹

Incoming: Which kon is reported for this binder? 872-5 VL A91G/T92R (antibody, V domains shown, BLI per 6.1.3) VH: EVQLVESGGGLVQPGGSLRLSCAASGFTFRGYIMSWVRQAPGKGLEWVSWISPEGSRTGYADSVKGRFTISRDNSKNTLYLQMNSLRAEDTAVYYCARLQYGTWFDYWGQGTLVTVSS VL: DIQMTQSPSSLSASVGDRVTITCRASQSISSYLNWYQQKPGKAPKLLIYAASSLQSGVPSRFSGSGSGTDFTLTISSLQPEDFATYYCQQGRLLLPTFGQGTKVEIKR
Outgoing: 1.03e+06 M⁻¹ s⁻¹

Incoming: Which kon is reported for this binder? anti-FAP antibody 872-5 (antibody, V domains shown, monovalent Fab-Fc (knob-in-hole) for KD per 6.1.3; also called IgG 5; FAP5) VH: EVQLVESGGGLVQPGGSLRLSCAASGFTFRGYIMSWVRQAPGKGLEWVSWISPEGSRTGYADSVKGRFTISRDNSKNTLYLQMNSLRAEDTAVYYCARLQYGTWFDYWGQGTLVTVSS VL: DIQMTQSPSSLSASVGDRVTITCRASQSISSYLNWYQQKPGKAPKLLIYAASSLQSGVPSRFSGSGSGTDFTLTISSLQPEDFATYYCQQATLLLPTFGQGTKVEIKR
Outgoing: 277000 M⁻¹ s⁻¹

Incoming: Which kon is reported for this binder? anti-FAP antibody 872-5V1 (antibody, V domains shown, KD by BLI per 6.1.3 (monovalent Fab-Fc)) VH: EVQLVESGGGLVQPGGSLRLSCAASGFTFRGYIMSWVRQAPGKGLEWVSWIGPEGSRTGYADSVKGRFTISRDNSKNTLYLQMNSLRAEDTAVYYCARLLYGTWFDYWGQGTLVTVSS VL: DIQMTQSPSSLSASVGDRVTITCRASQSISSYLNWYQQKPGKAPKLLIYAASSLQSGVPSRFSGSGSGTDFTLTISSLQPEDFATYYCQQGTLLLPTFGQGTKVEIKR
Outgoing: 625000 M⁻¹ s⁻¹

Incoming: Which kon is reported for this binder? 872-5 VH S52G/Q96L:VL A91G/T92R (antibody, V domains shown, BLI per 6.1.3) VH: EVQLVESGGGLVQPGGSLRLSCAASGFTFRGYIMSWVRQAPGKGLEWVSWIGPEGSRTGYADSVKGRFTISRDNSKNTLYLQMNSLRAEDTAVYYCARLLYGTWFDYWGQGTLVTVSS VL: DIQMTQSPSSLSASVGDRVTITCRASQSISSYLNWYQQKPGKAPKLLIYAASSLQSGVPSRFSGSGSGTDFTLTISSLQPEDFATYYCQQGRLLLPTFGQGTKVEIKR
Outgoing: 737000 M⁻¹ s⁻¹
